# ASSAY NOTES: Cytotoxicity against mouse J774 cells assessed as cell viability at 150 ug/ml after 48 hrs by MTT assay
# Type: cell-based
# CONDITION SET: read-out: Activity
Doc: threshold 90% (exclusive). Items with viability at 48 h, 150 ug/ml beneath it return criterion met; others return criterion not met.

| COMPOUND | ASSIGNED LABEL |
| --- | --- |
| O=C(N/N=C/c1ccccc1O)c1cnccn1 | criterion met |
| N#Cc1ccc(/C=N/NC(=O)c2cnccn2)cc1 | criterion not met |
| CCOc1ccc(/C=N/NC(=O)c2cnccn2)cc1 | criterion not met |
| O=C(N/N=C/c1cccc([N+](=O)[O-])c1)c1cnccn1 | criterion met |

Read the next record carefully.
# TODO verify viability at 48 h, 150 ug/ml < 90% strictly for this compound: COc1cccc(/C=N/NC(=O)c2cnccn2)c1
criterion not met

====

# ASSAY NOTES: Cytotoxicity against Mycobacterium bovis Bacillus Calmette-Guerin infected mouse J774 cells assessed as cell viability at 150 ug/ml after 48 hrs by MTT assay
# Format: cell-based
# CONDITION SET: read-out: Activity
MEASURED QUANTITY: viability at 48 h, 150 ug/ml

Past entries and their recorded results:
| COMPOUND | RECORDED MEASUREMENT |
| --- | --- |
| CCN(CC)c1ccc(/C=N/NC(=O)c2cnccn2)cc1 | 78% |
| CCOc1ccc(/C=N/NC(=O)c2cnccn2)cc1 | 88% |
| N#Cc1cccc(/C=N/NC(=O)c2cnccn2)c1 | 89% |

Working through the 7 compounds below one at a time, give viability at 48 h, 150 ug/ml for each.
1. O=C(N/N=C/c1cccc(Cl)c1)c1cnccn1
2. O=C(N/N=C/c1ccccc1[N+](=O)[O-])c1cnccn1
3. O=C(N/N=C/c1cccc(O)c1)c1cnccn1
4. O=C(N/N=C/c1cccc(Br)c1)c1cnccn1
5. NC(=O)c1cnccn1 [PYRAZINAMIDE]
6. O=C(N/N=C/c1ccc(O)cc1)c1cnccn1
7. CN(C)c1ccc(/C=N/NC(=O)c2cnccn2)cc1

1. 94%
2. 88%
3. 57%
4. 56%
5. 67%
6. 91%
7. 71%

Parameter requested: viability at 48 h, 150 ug/ml. Apply to each item below.
1. N#Cc1ccc(/C=N/NC(=O)c2cnccn2)cc1
2. COc1ccccc1/C=N/NC(=O)c1cnccn1
3. O=C(N/N=C/c1ccccc1)c1cnccn1

["100%", "56%", "80%"]

====

Provide the reported viability at 48 h, 50 ug/ml of each item.
# ASSAY NOTES: Cytotoxicity against mouse J774 cells assessed as cell viability at 50 ug/ml after 48 hrs by MTT assay
# Type: cell-based
# CONDITION SET: read-out: Activity
Numbers only, in %.

| COMPOUND | viability at 48 h, 50 ug/ml, % |
| --- | --- |
| O=C(N/N=C/c1ccc(Br)cc1)c1cnccn1 | 100 |
| O=C(N/N=C/c1cccc(Br)c1)c1cnccn1 | 100 |

Give viability at 48 h, 50 ug/ml for each listed item.
1. O=C(N/N=C/c1ccccc1Cl)c1cnccn1
2. O=C(N/N=C/c1cccc(F)c1)c1cnccn1
3. COc1cccc(/C=N/NC(=O)c2cnccn2)c1
4. NC(=O)c1cnccn1 [PYRAZINAMIDE]
5. O=C(N/N=C/c1ccccc1Br)c1cnccn1

[70, 49, 100, 100, 98]
